Assay Details: Aqueous solubility of the compound in phosphate buffer at pH 7.4 after 4 hrs by HPLC-UV method
Type: physicochemical
Conditions: pH 7.4, 4 h
The entries below are paired with their reported solubility.

Compound: COc1ccc2c(c1)N(C)C(=O)CN2c1nc(C)nc2ccccc12
Units Text: µg/mL
solubility: 4.2
//
Compound: COc1ccc2c(c1)C(=O)CCN2c1nc(C)nc2ccccc12
Units Text: µg/mL
solubility: 1.21
//
Compound: COc1ccc2c(c1)C(O)CCN2c1nc(C)nc2ccccc12 (centres undefined)
Units Text: µg/mL
solubility: 8.72
//
Compound: COc1ccc2c(c1)CCCCN2c1nc(C)nc2ccccc12
Units Text: µg/mL
solubility: 2.94
